Where do the numbers come from? From patent US20100022559A1.

Test: logP determination by HPLC on a reversed-phase column (C 18), EEC Directive 79/831 Annex V.A8
Format: physicochemical
Conditions: value marked [b]
Reported logP values for a set of compounds

Recorded results for 3 compounds are shown here.
>>> reported("CC(=NOCCCCON=C(C)c1cc2ccccc2o1)c1cccc(C)n1 [compound 381]")
"4.74^[b]"
>>> reported("COc1ccc(C(C)=NOCC(C)(C)CON=C(C)c2cc3ccccc3o2)cc1OC [compound 415]")
"5.42^[b]"
>>> reported("CCC(CC)(CON=C(C)c1nc(C)ccc1C)CON=C(C)c1nc(C)ccc1C [compound 812]")
"5.24^[b]"

QUERY: What logP value was documented for this compound, CC(=NOCC(C)(C)CON=C(Cc1ccccc1)c1ncccc1C)c1cccc(C)n1 [compound 363] ?
RESULT: 5.71^[b]

QUERY: What logP value was documented for this compound, CC(=NOC/C=C/CON=C(C)c1ccccn1)c1ccccn1 [compound 781] ?
RESULT: 2.84^[b]

QUERY: What logP value was documented for this compound, C=C(CON=C(C)c1cccc(C(F)(F)F)c1)CON=C(C)c1cccc(C)n1 [compound 399] ?
RESULT: 5.36^[b]

QUERY: What logP value was documented for this compound, C=C(CON=C(C)c1ccnc(C)c1)CON=C(C)c1cccc(C)n1 (single isomer, unassigned) [compound 362] ?
RESULT: 1.71^[b] (isomer B)

----------
Test: logP determination by HPLC on a reversed-phase column (C 18), EEC Directive 79/831 Annex V.A8
Type: physicochemical
Details: value marked [b]
Reported logP values for a set of molecules

>>> reported("CC(=NOCC(C)CON=C(C)c1cccc(C(C)C)n1)c1cccc(C)n1 (centres unmarked)")
"6.29^b]"
>>> reported("CC(=NOCC(C)CON=C(C)c1cnnc(C)n1)c1cccc(C)n1 (centres unmarked)")
"3.24^[b]"
>>> reported("CC(=NOC[Si](C)(CON=C(C)c1ccc(C)c(C)n1)C(C)C)c1ccc(C)c(C)n1")
"6.76^[b]"
>>> reported("CCC(=NOCCCCON=C(C)c1cccc(C)n1)c1ncccc1C (single isomer, unassigned) [compound 328]")
"3.65^[b] (isomer B)"
>>> reported("CC(=NOCCCCCCON=C(c1cccc(C)n1)C1CC1)c1cccc(C)n1")
"4.56^[b]"

QUERY: What logP value was documented for this molecule, COc1cc(C)nc(C(C)=NOCCCCCCON=C(C)c2cccc(C)n2)c1 ?
RESULT: 4.15^[b]

QUERY: What logP value was documented for this molecule, CC(=NOCCCCCCON=C(C)c1cccnc1C)c1cccc(C)n1 ?
RESULT: 2.27^[b]

QUERY: What logP value was documented for this molecule, CC(=NOC(C)C(C)C(C)ON=C(C)c1cc(C)cc(C)n1)c1cc(C)cc(C)n1 (mixture of isomers) ?
RESULT: 4.44^[b]

----------
Assay: logP determination by HPLC on a reversed-phase column (C 18), EEC Directive 79/831 Annex V.A8
Format: physicochemical
Conditions: value marked [b]
Reported logP values for a set of molecules

Recorded results for 3 molecules are shown here.
>>> reported("CCC(=NOCCCCCCON=C(C)c1cccc(C)n1)c1ncccc1C (single isomer, unassigned) [compound 532]")
"3.99^b] (isomer )A"
>>> reported("CC(=NOCC(C)(C)CON=C(C)c1cccnc1C)c1cccc(C)n1")
"2.20^[b]"
>>> reported("CC(=NOCCCCCCON=C(C)c1cnnc(C)n1)c1cccc(C)n1")
"4.15^[b]"

We now examine a further molecule.
QUERY: What logP value was documented for this molecule, COc1cccc(C(C)=NOCCCCON=C(C)c2cccc(C)n2)c1 ?
RESULT: 4.57^[b]
